- Tested target: human KHK-C (Homo sapiens (Human))
- Sequence (P50053 whole entry): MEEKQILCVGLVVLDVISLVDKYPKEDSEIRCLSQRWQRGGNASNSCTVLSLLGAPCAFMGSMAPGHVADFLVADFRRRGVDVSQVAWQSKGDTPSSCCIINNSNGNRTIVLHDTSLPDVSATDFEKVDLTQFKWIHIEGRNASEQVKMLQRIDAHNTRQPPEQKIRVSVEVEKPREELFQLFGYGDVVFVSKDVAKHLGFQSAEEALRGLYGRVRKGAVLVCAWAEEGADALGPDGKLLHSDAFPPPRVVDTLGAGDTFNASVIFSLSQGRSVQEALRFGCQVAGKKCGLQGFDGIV
- Measurement description: KHK Enzyme Activity Assay for Human KHK-C
- Cond: fructose 250 μM, ATP 150 μM; F1P production by RapidFire MS; read-out: hKHK-C IC50
- Experimental: KHK Enzyme Activity Assay for Human KHK-C and Human KHK-A The intrinsic potency for inhitibiton of KHK C or A activity may be measured using an enzymatic assay which measures the production of F1P. […] RapidFire MS Analysis for Quantitation of F1P […] Solvent A, used for sample loading and washing, is 6 mM octylamine (Acros Organics 129495000) brought to pH 5.0 using acetic acid. […] Samples are sequentially analyzed by aspirating 10 μL onto the collection loop under vacuum directly from multiwell plates. […]
Please go through the items and note down their pIC50.
Please treat pIC50 as minus the base-10 logarithm of the molar concentration.

Which pIC50 value is on record for C[C@H]1CCN1c1nc(-c2ccc(C(=O)NC(CO)(CO)CO)cc2)cc(C(F)(F)F)n1 ?
7.53

May I ask what pIC50 has been recorded for C[C@H]1CCN1c1nc(-c2ccc(C(=O)O)cc2)cc(C(F)(F)F)n1 ?
7.65

Consider the compound C[C@H]1CCN1c1nc(-c2ccc(C(=O)N3C[C@@H](O)[C@@H](O)C3)cc2)cc(C(F)(F)F)n1 and give its measured pIC50.
7.64

----------
- Measurement description: Pharmacokinetics in Dogs
- Assay type: in vivo, Beagle Dogs
- Cond: beagle, plasma; dog, fed; PO 2 mg/kg, IV 1 mg/kg
Readout kind: bioavailability

I would be grateful if you could share the reported bioavailability for C[C@H]1CCN1c1nc(-c2ccc(C(=O)NC(CO)(CO)CO)cc2)cc(C(F)(F)F)n1 [Example 3] .
~96%

----------
- Measurement description: Pharmacokinetics in Sprague Dawley Rats
- Format: in vivo
- Cond: Sprague-Dawley, plasma; rat, IV 1 mg/kg
Readout kind: half-life (h)
# output: bare number, implied unit h

Consider the molecule C[C@H]1CCN1c1nc(-c2ccc(C(=O)NC(CO)(CO)CO)cc2)cc(C(F)(F)F)n1 and give its measured half-life.
2.95

# input molecule: C[C@H]1CCN1c1nc(-c2ccc(C(=O)N3C[C@@H](O)[C@@H](O)C3)cc2)cc(C(F)(F)F)n1 ; wanted: its half-life
6.42

----------
- Measurement description: Pharmacokinetics in Sprague Dawley Rats
- Format: in vivo
- Cond: Sprague-Dawley, plasma; rat, fasted; PO 3 mg/kg, IV 1 mg/kg
Readout kind: bioavailability (%)
Give the number; % is assumed, so skip it.

Field request: bioavailability | item: C[C@H]1CCN1c1nc(-c2ccc(C(=O)N3C[C@@H](O)[C@@H](O)C3)cc2)cc(C(F)(F)F)n1
65

Given C[C@H]1CCN1c1nc(-c2ccc(C(=O)NC(CO)(CO)CO)cc2)cc(C(F)(F)F)n1 , state its recorded bioavailability.
69
